- assay_overview: Stopped-flow kinetic analysis of superoxide dismutation
- Assay type: biochemical
- Set-up: unit not given here
- assay_context: pH 8.1
Classification by kcat pH 8.1 | ranges: bottom range (below 2), center range (2 to below 3), top range (3 or more)

Recorded results for 6 molecules are shown here.
molecule	label
NCCC[C@H]1C[N]2[C@@H]3CCCC[C@H]3[N]3CC[N]4CC[N]5CC[N]1[Mn]5432([Cl])[Cl] [Compound 11]	center range
[Cl][Mn]1234([Cl])[N]5CC[N]1CC[N]2[C@@H](Cc1cnc[nH]1)C[N]3[C@H](Cc1cnc[nH]1)C[N]4CC5 [Compound 7]	bottom range
CCC(=O)OCC1C[N]2CC[N]3[C@@H](COC(=O)CC)C[N]4[C@@H](COC(=O)CC)C[N]5[C@@H](COC(=O)CC)C[N]1[Mn]2354([Cl])[Cl] (stereo partly shown) [Compound 34]	center range
Oc1ccccc1CC1C[N]2CC[N]3CC[N]4CC[N]5CC[N]1[Mn]4352([Cl])[Cl] (stereo not shown) [Compound 6]	top range
CC(C)(C)SC[C@H]1C[N]2[C@@H]3CCCC[C@H]3[N]3C[C@H](CSC(C)(C)C)[N]4CC[N]5CC[N]1[Mn]5423([Cl])[Cl] [Compound 21]	bottom range
OC[C@@H]1C[N]2CC[N]3[C@@H](CO)C[N]4[C@H](CO)C[N]5[C@@H](CO)C[N]1[Mn]2345([Cl])[Cl] [Compound 23]	top range

[Q] # classify by kcat pH 8.1 band: C[C@@H]1C[N]2[C@H]3CCCC[C@H]3[N]3CC[N]4C5CCCCC5[N]5CC[N]1[Mn]5432([Cl])[Cl] (stereo partly shown) [Compound 18]
[A] top range

* * *

- assay_overview: Stopped-flow kinetic analysis of superoxide dismutation
- Type: biochemical
- Design: unit not given here
- assay_context: pH 8.1
value_kind: kcat pH 8.1
// no unit string in output, number only

Worked set:
compound	kcat pH 8.1
C[C@H](CCCNCCC[C@H]1C[N]2[C@@H]3CCCC[C@H]3[N]3CC[N]4CC[N]5CC[N]1[Mn]5432([Cl])[Cl])[C@H]1CCC2[C@@H]3CC[C@@H]4C[C@H](O)CC[C@]4(C)C3CC[C@@]21C (stereo partly drawn)	0.77
OC[C@@H]1C[N]2[C@@H]3CCCC[C@H]3[N]3CC[N]4C5CCCCC5[N]5CC[N]1[Mn]5432([Cl])[Cl] (stereo partly drawn)	3.47
CC(=O)OC[C@@H]1C[N]2CC[N]3[C@@H](COC(C)=O)C[N]4[C@H](COC(C)=O)C[N]5[C@@H](COC(C)=O)C[N]1[Mn]2345([Cl])[Cl]	4.08
[Cl][Mn]1234([Cl])[N]5CC[N]1C1CCCCC1[N]2CC[N]3C1CCCCC1[N]4CC5 (stereo not drawn)	4.09
FC(F)(F)CC1C[N]2CC[N]3CC[N]4CC[N]5CC[N]1[Mn]4352([Cl])[Cl] (stereo not drawn)	1.68

The record that follows has no kcat pH 8.1 shown yet.
[Q] I would be grateful if you could share the reported kcat pH 8.1 for CNCCCC[C@@H]1C[N]2CC[N]3CC[N]4CC[N]5[C@@H](CCCCNC)C[N]1[Mn]3425([Cl])[Cl] .
[A] 5.90

* * *

- assay_overview: Stopped-flow kinetic analysis of superoxide dismutation
- Format: biochemical
- Set-up: unit not given here
- assay_context: pH 8.1
Tag: Satisfied if measured kcat pH 8.1 is not below 3, Not satisfied if it is.

Example entries begin here.
compound	label
COC(=O)C1=C(C(=O)OC)C2OC1C=C2COC[C@H]1C[N]2[C@H](C)C[N]3[C@@H](C)C[N]4CC[N]5[C@H](C)C[N]1[Mn]4523([Cl])[Cl] (stereo partly drawn) [Compound 25]	Not satisfied
C[C@@H]1C[N]2[C@@H](CCCNC(=O)CCC(=O)O)C[N]3[C@@H]4CCCC[C@H]4[N]4CC[N]5[C@@H](C)C[N]1[Mn]2435([Cl])[Cl] [Compound 32]	Not satisfied
OC[C@@H]1C[N]2[C@@H](CO)C[N]3[C@@H](CO)C[N]4[C@H](CO)C[N]5[C@@H](CO)C[N]1[Mn]4523([Cl])[Cl] [Compound 10]	Not satisfied
NCCC[C@H]1C[N]2[C@H]3CCCC[C@H]3[N]3CC[N]4[C@H]5CCCC[C@H]5[N]5CC[N]1[Mn]5342([Cl])[Cl] [Compound 14]	Satisfied

[Q] Say whether CCC(=O)OC[C@H]1C[N]2[C@@H]3CCCC[C@H]3[N]3CC[N]4C5CCCCC5[N]5CC[N]1[Mn]5432([Cl])[Cl] (stereo partly drawn) [Compound 39] shows kcat pH 8.1 of 3 or more.
[A] Not satisfied
